# credit: ChEMBL document CHEMBL3044580

test system: Doru; assay: Insecticidal activity against adult Doru luteipes (earwigs) in compound treated maize leaf assessed as mortality measured after 48 hr by concentration-mortality bioassay; type: functional
property_label: log10(LC50) (log10 of the value in µg/mL)
// do not treat as linear: log10 of LC50, unit µg/mL

Known results for compounds:
[[record]]
compound = "CNC(=O)ON=C(C)SC"
property_label = "log10(LC50)"
quantitative_readout = 3.34

[[record]]
compound = "CCOc1ccc(C(C)(C)COCc2cccc(Oc3ccccc3)c2)cc1"
property_label = "log10(LC50)"
quantitative_readout = 2.82

[[record]]
compound = "CC1(C)[C@H](/C=C(\\Cl)C(F)(F)F)[C@@H]1C(=O)O[C@@H](C#N)c1cccc(Oc2ccccc2)c1 (relative stereo)"
property_label = "log10(LC50)"
quantitative_readout = 1.22


Entry "CCOCn1c(-c2ccc(Cl)cc2)c(C#N)c(Br)c1C(F)(F)F" has what log10(LC50)?
1.73

Entry "CC1(C)[C@H](C(=O)O[C@H](C#N)c2cccc(Oc3ccccc3)c2)[C@@H]1C=C(Br)Br" has what log10(LC50)?
1.35

Entry "CCOP(=S)(OCC)Oc1nc(Cl)c(Cl)cc1Cl" has what log10(LC50)?
0.15

====

test system: Spodoptera frugiperda; test: Relative toxicity in second instar Spodoptera frugiperda (fall armyworm) in compound treated maize leaf assessed as mortality measured after 48 hr by concentration-mortality bioassay; assay type: functional
Note to self: use 1 (yes) only for Ratio readings below 2; a reading exactly at 2 still gets 0 (no).

Some solved cases for reference:
[[record]]
molecule = "CCOc1ccc(C(C)(C)COCc2cccc(Oc3ccccc3)c2)cc1"
label_class = "1 (yes)"

[[record]]
molecule = "CCOP(=S)(OCC)Oc1nc(Cl)c(Cl)cc1Cl"
label_class = "0 (no)"

[[record]]
molecule = "CNC(=O)c1cc(Cl)cc(C)c1NC(=O)c1cc(Br)nn1-c1ncccc1Cl"
label_class = "0 (no)"


Dear colleague, could you confirm whether Ratio of CC1(C)[C@H](/C=C(\Cl)C(F)(F)F)[C@@H]1C(=O)O[C@@H](C#N)c1cccc(Oc2ccccc2)c1 (relative stereo) falls below 2? Thanks.
0 (no)

Dear colleague, could you confirm whether Ratio of "CCOCn1c(-c2ccc(Cl)cc2)c(C#N)c(Br)c1C(F)(F)F" falls below 2? Thanks.
1 (yes)

Dear colleague, could you confirm whether Ratio of "CC1(C)[C@H](C(=O)O[C@H](C#N)c2cccc(Oc3ccccc3)c2)[C@@H]1C=C(Br)Br" falls below 2? Thanks.
0 (no)

Dear colleague, could you confirm whether Ratio of "CNC(=O)ON=C(C)SC" falls below 2? Thanks.
1 (yes)

====

system: Spodoptera frugiperda; experiment: Relative toxicity in second instar Spodoptera frugiperda (fall armyworm) in compound treated maize leaf assessed as mortality measured by Time-mortality bioassay; assay type: functional
property_label: Ratio
Answer with a bare number; do not write a unit.

Known results for molecules:
[[record]]
molecule = "CNC(=O)ON=C(C)SC"
quantitative_readout = 1.71

[[record]]
molecule = "CC1(C)[C@H](C(=O)O[C@H](C#N)c2cccc(Oc3ccccc3)c2)[C@@H]1C=C(Br)Br"
quantitative_readout = 2.63

[[record]]
molecule = "CNC(=O)c1cc(Cl)cc(C)c1NC(=O)c1cc(Br)nn1-c1ncccc1Cl"
quantitative_readout = 4.97


Entry "CCOc1ccc(C(C)(C)COCc2cccc(Oc3ccccc3)c2)cc1" has what Ratio?
1

Entry "CCOP(=S)(OCC)Oc1nc(Cl)c(Cl)cc1Cl" has what Ratio?
1.26

Entry "CCOCn1c(-c2ccc(Cl)cc2)c(C#N)c(Br)c1C(F)(F)F" has what Ratio?
6.83

Entry CC1(C)[C@H](/C=C(\Cl)C(F)(F)F)[C@@H]1C(=O)O[C@@H](C#N)c1cccc(Oc2ccccc2)c1 (relative stereo) has what Ratio?
1.47

====

system: Doru; assay: Relative toxicity in adult Doru luteipes (earwigs) in compound treated maize leaf assessed as mortality measured after 48 hr by concentration-mortality bioassay; assay type: functional
property_label: Ratio
Answer with a bare number; do not write a unit.

[[record]]
molecule = "CCOCn1c(-c2ccc(Cl)cc2)c(C#N)c(Br)c1C(F)(F)F"
study_target = "Doru"
property_label = "Ratio"
quantitative_readout = 14000

[[record]]
molecule = "CCOc1ccc(C(C)(C)COCc2cccc(Oc3ccccc3)c2)cc1"
study_target = "Doru"
property_label = "Ratio"
quantitative_readout = 1133.5


Entry "CNC(=O)c1cc(Cl)cc(C)c1NC(=O)c1cc(Br)nn1-c1ncccc1Cl" has what Ratio?
1

Entry "CNC(=O)ON=C(C)SC" has what Ratio?
348

Entry "CC1(C)[C@H](C(=O)O[C@H](C#N)c2cccc(Oc3ccccc3)c2)[C@@H]1C=C(Br)Br" has what Ratio?
33000

Entry "CCOP(=S)(OCC)Oc1nc(Cl)c(Cl)cc1Cl" has what Ratio?
550000

Entry CC1(C)[C@H](/C=C(\Cl)C(F)(F)F)[C@@H]1C(=O)O[C@@H](C#N)c1cccc(Oc2ccccc2)c1 (relative stereo) has what Ratio?
45000

====

experiment: Selectivity ratio of LC50 for adult earwig species Doru luteipes to LC50 for second instar fall armyworm Spodoptera frugiperda by concentration-mortality bioassay; assay type: functional
In this section we review reported RatioLC50 values for a set of molecules.
Answer with a bare number; do not write a unit.

[[record]]
molecule = "CCOc1ccc(C(C)(C)COCc2cccc(Oc3ccccc3)c2)cc1"
quantitative_readout = 198

[[record]]
molecule = "CCOCn1c(-c2ccc(Cl)cc2)c(C#N)c(Br)c1C(F)(F)F"
quantitative_readout = 22.5

[[record]]
molecule = "CNC(=O)c1cc(Cl)cc(C)c1NC(=O)c1cc(Br)nn1-c1ncccc1Cl"
quantitative_readout = 980000


Entry "CCOP(=S)(OCC)Oc1nc(Cl)c(Cl)cc1Cl" has what RatioLC50?
1.2

Entry CC1(C)[C@H](/C=C(\Cl)C(F)(F)F)[C@@H]1C(=O)O[C@@H](C#N)c1cccc(Oc2ccccc2)c1 (relative stereo) has what RatioLC50?
23.7

Entry "CC1(C)[C@H](C(=O)O[C@H](C#N)c2cccc(Oc3ccccc3)c2)[C@@H]1C=C(Br)Br" has what RatioLC50?
152

Entry "CNC(=O)ON=C(C)SC" has what RatioLC50?
517
